System: UACC-257 melanoma
Assay: NCI-60 one-dose screen, 48 h (100 = growth as untreated, 0 = no growth, -100 = all killed)
Settings: 10 µM unless noted
About 83,000 compounds went through this panel and 20% of them were active in at least one assay; those are over-represented in the sample as a whole.
Readout Name: growth (%)
Write the number in % without appending the unit.

The cases that follow already have their growth on record.
Structure	System Tested	growth [%]
COc1ccc(/C=C(\C#N)c2cc3ccccc3n2C(C)=O)cc1	UACC-257 melanoma	99.6
COc1ccc(-c2cc(-c3cccs3)n(N=O)c(=O)c2C#N)cc1	UACC-257 melanoma	101
C=C(C)[C@@H]1CC[C@]2(CN)CC[C@]3(C)[C@H](CC[C@@H]4[C@@]5(C)CCC(=O)NC(C)(C)[C@@H]5CC[C@]43C)[C@@H]12	UACC-257 melanoma	29.6

Problem: Data request, read-out growth, for "COC(c1ccccc1)(c1ccccc1)c1ccccc1"
Solution: 122

Problem: Can you check "Cn1cc(-c2nc(-c3cn(C)c4ncccc34)cs2)c2cc(F)ccc21" next?
Solution: 61.7

Problem: What do you have for "C=C(C)[C@@H]1CC[C@]2(C(=O)O)CC[C@]3(C)[C@H](CC[C@@H]4[C@@]5(C)C/C(=C/c6cccc(I)c6)C(=O)C(C)(C)[C@@H]5CC[C@]43C)[C@@H]12" ?
Solution: 20.7

Problem: Note, next up: "C=C(C)[C@@H]1CC[C@]2(C)[C@H](CC=C3[C@@H]4CC(C)(C)CC[C@]4(C(=O)OC)CC[C@]32C)[C@@]1(C)CC/C(N)=N/O"
Solution: -32.1

Problem: Also check "Cn1cc(-c2nc(-c3c[nH]c4ncccc34)cs2)c2cc(F)ccc21"
Solution: 53.3

Problem: One more molecule: "COc1ccc2nc(-c3cc(-c4cc(OC)c(OC)c(OC)c4)n[nH]3)[nH]c2c1"
Solution: -13.4

Problem: Same lookup for "Cc1ccc2oc(=O)cc(-c3sc(N4CCCCC4)nc3-c3ccccc3)c2c1" , please.
Solution: 105

Problem: Then what about the molecule "Cc1ccc(-c2ccc(Nc3ccccc3)nn2)cc1S(N)(=O)=O" ?
Solution: 96.4

Problem: Same for "O=C1c2ccccc2C(=Cc2ccccc2)c2ccccc21"
Solution: 15.7

Problem: What do you get for "CC(C)C[C@@H](NC(=O)[C@@H](Cc1ccccc1)NC(=O)c1cnccn1)B1O[C@H]2[C@H](O)[C@@H](C(=O)NCCCC[C@@H]3NC(=O)[C@@H](Cc4ccccc4)NC(=O)[C@H](CC(=O)O)NC(=O)CNC(=O)[C@H](CCCN=C(N)N)NC3=O)O[C@@H](CN)[C@H]2O1" ?
Solution: -28

Problem: Proceed to "CC(=O)O[C@H]1CC[C@@]2(C)C(=CC[C@@H]3[C@@H]2CC[C@]2(C)C(=O)N(O)C(=O)C[C@@H]32)C1"
Solution: 106

Problem: Same lookup for "O=C(/C=C\c1ccc2c(c1)OCO2)/C=C/c1ccc2c(c1)OCO2" , please.
Solution: 98.2
